Value source: paper PMC10668032

- target-or-system: SIX1-Q177R homeodomain (human, UniProt Q15475 108-198, Q177R)
- Sequence: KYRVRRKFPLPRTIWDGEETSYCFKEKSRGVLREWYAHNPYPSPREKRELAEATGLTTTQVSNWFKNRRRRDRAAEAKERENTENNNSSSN
- experiment: universal protein binding microarray; Universal all-10-mer PBM (8x60K, AMADID 030236), 300 nM GST-tagged protein, Alexa Fluor 488 anti-GST; buffer, salt, pH and temperature not stated (as in Berger); high values mean tight binding
- conditions: protein: ivt; tags: N-terminal GST; dsDNA, one strand shown
Whole data set: some 33,000 sequences, median “e-score” near -0.05, cut for the highest 2% near 0.38. For the sample, the highest values were picked, then their nearest neighbours and some sequences at random.
I'd appreciate it if you could supply binding signal values for the items below.

Look over these answered cases.
Prompt line: For the sequence GGGGTCTA , what binding signal is on record?
Response line: 0.229 E-score

Prompt line: For the sequence TATTTACA , what binding signal is on record?
Response line: 0.311 E-score

Prompt line: For the sequence ACACGTAA , what binding signal is on record?
Response line: 0.323 E-score

Prompt line: For the sequence AGTGTCTA , what binding signal is on record?
Response line: 0.372 E-score

Prompt line: For the sequence CGTGTCTA , what binding signal is on record?
Response line: 0.405 E-score

Below are 4 sequences. Give each one its binding signal.
1. ACACGTAC
2. ACACGTGG
3. GGTCCGTA
4. CCCCGCCC

Response line:
1: 0.353 E-score; 2: 0.32 E-score; 3: 0.189 E-score; 4: 0.223 E-score

Below are 2 sequences. Give each one its binding signal.
1. GGTGTCTA
2. ACACGTAG

Response line:
["0.468 E-score", "0.325 E-score"]

====

- target-or-system: SIX1-Q177R homeodomain (human, UniProt Q15475 108-198, Q177R)
- Sequence: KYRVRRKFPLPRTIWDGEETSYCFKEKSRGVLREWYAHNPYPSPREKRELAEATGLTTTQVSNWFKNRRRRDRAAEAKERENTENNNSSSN
- experiment: universal protein binding microarray; Universal all-10-mer PBM (8x60K, AMADID 030236), 300 nM GST-tagged protein, Alexa Fluor 488 anti-GST; buffer, salt, pH and temperature not stated (as in Berger); high values mean tight binding
- conditions: protein: ivt; tags: N-terminal GST; dsDNA, one strand shown
Whole data set: some 33,000 sequences, median “e-score” near -0.05, cut for the highest 2% near 0.38. Many of the other results were omitted from the sample, so the highest values are more common in it than they were.
Tick 1 if binding signal is 0.3 E-score or greater. Tick -1 if binding signal is less than 0.3 E-score.

Use these answered entries as a reference point.
Prompt line: Identify whether the reported binding signal of the following sequence is 0.3 E-score or greater: CACCACCG
Response line: 1

Prompt line: Identify whether the reported binding signal of the following sequence is 0.3 E-score or greater: CTCGGACA
Response line: -1

Prompt line: Identify whether the reported binding signal of the following sequence is 0.3 E-score or greater: GTATCCCA
Response line: -1

Continuing:
Prompt line: Identify whether the reported binding signal of the following sequence is 0.3 E-score or greater: AAGCACCG
Response line: -1

Prompt line: Identify whether the reported binding signal of the following sequence is 0.3 E-score or greater: CAACACAC
Response line: 1

Prompt line: Identify whether the reported binding signal of the following sequence is 0.3 E-score or greater: AACCCCCA
Response line: -1

Prompt line: Identify whether the reported binding signal of the following sequence is 0.3 E-score or greater: CAACACCC
Response line: 1

Prompt line: Identify whether the reported binding signal of the following sequence is 0.3 E-score or greater: GGGATCAC
Response line: -1

Prompt line: Identify whether the reported binding signal of the following sequence is 0.3 E-score or greater: GGCGAACA
Response line: -1

Prompt line: Identify whether the reported binding signal of the following sequence is 0.3 E-score or greater: ACTTGGTG
Response line: -1

Prompt line: Identify whether the reported binding signal of the following sequence is 0.3 E-score or greater: CAACACTG
Response line: 1

Prompt line: Identify whether the reported binding signal of the following sequence is 0.3 E-score or greater: AAACACCG
Response line: 1
